System Under Test: PIK3CA (Homo sapiens, UniProt P42336)
Construct: endogenous in cells
Sequence (P42336 whole entry): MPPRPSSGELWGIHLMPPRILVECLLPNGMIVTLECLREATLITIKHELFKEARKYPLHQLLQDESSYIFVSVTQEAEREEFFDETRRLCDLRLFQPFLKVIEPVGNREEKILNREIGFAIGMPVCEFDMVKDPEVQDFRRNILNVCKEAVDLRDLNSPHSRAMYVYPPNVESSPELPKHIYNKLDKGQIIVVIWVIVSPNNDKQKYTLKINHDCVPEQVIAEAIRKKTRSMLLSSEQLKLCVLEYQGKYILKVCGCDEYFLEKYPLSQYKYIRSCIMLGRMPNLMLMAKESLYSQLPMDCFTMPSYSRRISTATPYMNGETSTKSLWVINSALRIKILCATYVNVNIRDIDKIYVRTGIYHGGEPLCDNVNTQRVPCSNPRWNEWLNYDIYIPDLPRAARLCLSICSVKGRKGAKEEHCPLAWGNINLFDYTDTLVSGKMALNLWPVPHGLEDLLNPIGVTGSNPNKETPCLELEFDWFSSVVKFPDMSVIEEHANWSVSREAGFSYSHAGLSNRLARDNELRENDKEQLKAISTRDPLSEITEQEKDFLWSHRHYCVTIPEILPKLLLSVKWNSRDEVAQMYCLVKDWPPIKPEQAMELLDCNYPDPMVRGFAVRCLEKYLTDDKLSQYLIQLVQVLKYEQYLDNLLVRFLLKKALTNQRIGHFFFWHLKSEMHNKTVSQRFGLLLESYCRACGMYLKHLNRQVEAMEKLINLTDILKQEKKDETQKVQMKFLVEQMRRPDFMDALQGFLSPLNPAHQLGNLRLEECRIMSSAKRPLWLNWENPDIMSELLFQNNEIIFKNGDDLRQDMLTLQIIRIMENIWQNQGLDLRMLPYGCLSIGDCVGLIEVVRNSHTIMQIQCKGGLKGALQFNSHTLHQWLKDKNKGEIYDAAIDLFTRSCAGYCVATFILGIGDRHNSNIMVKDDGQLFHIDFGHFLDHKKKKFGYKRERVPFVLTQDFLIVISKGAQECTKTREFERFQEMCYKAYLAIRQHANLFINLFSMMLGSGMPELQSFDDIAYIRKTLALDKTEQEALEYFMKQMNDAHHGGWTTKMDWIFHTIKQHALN
Sequence (P27986 whole entry partner): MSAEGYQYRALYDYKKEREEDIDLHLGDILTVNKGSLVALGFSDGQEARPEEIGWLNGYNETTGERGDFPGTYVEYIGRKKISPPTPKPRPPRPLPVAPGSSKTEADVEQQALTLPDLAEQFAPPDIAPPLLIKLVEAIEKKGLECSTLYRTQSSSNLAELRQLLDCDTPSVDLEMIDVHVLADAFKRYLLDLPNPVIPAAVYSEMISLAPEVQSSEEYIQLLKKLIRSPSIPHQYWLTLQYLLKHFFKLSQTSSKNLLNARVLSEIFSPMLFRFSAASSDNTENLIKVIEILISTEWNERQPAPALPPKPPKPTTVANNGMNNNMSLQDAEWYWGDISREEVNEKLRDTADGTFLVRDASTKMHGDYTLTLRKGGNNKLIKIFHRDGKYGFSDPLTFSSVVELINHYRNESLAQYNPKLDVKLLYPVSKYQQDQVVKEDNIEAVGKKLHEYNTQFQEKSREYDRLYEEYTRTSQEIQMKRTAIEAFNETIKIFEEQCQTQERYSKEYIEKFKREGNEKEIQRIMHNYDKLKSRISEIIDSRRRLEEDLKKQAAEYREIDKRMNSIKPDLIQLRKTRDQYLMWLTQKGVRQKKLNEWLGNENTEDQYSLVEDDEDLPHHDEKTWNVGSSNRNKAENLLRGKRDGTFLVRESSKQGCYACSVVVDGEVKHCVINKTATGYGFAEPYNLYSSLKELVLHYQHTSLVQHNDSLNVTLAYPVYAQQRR
Procedure Text: In vitro ELISA target engagement assay for PIK3CA in Jurkat cellular lysate (competition with PIK3CA Biotin Probe)
Protocol Conditions: 1 hour at rt, then 500 nM PIK3CA Biotin Probe, read-out: Elisa Target Engagement Assay (TE50)
Measured Endpoint: IC50 (µM)
Numeric only. Scale: µM

Q: // lookup IC50 | system=PIK3CA (Homo sapiens, UniProt P42336) | key= C[C@H](/C=C\S(C)(=O)=O)NC(=O)[C@@]1(F)CCCCN(C(=O)[C@H]2CN(CC(F)(F)F)C[C@H]2c2ccccc2Cl)CC1 (single isomer, unassigned)
Result: 0.88

Q: Subsequent entry: C[C@H](/C=C/C(=O)N1CC(F)(F)C1)NC(=O)[C@]1(F)CCN(S(=O)(=O)c2cnc(C(F)(F)F)cc2-c2ccccc2Cl)[C@H](C)C1
Result: 0.49

Q: Subsequent entry: C[C@H](/C=C\S(C)(=O)=O)NC(=O)C1(F)CCN(C(=O)[C@H]2CCN(C(=O)OC(C)(C)C)C[C@H]2c2ccccc2Cl)CC1 (relative stereo)
Result: 0.66

---

System Under Test: PIK3CA (Homo sapiens)
Construct: endogenous in cells
Procedure Text: In vitro ELISA target engagement assay for PIK3CA in Jurkat cellular lysate (competition with PIK3CA Biotin Probe)
Protocol Conditions: 1 hour at rt, then 500 nM PIK3CA Biotin Probe, read-out: Elisa Target Engagement Assay (TE50)
Measured Endpoint: IC50 (nM)
Numeric only. Scale: nM

C[C@H](/C=C\S(C)(=O)=O)NC(=O)C1(F)CCN(S(=O)(=O)c2cnc(C(F)(F)F)cc2-c2ccc(F)cc2Cl)CC1 [Compound 211]: 1000
COc1ccc(Cl)c(-c2cc(Cl)ncc2S(=O)(=O)N2CCC(F)(C(=O)N[C@@H](C)/C=C\S(C)(=O)=O)CC2)c1 [Compound 271]: 170
C[C@@H]1C[C@](F)(C(=O)NC/C=C\C(=O)N2CC(F)(F)C2)CCN1S(=O)(=O)c1cnc(C(F)(F)F)cc1-c1ccccc1Cl [Compound 289]: 460
C[C@H](/C=C/S(=O)(=O)C1CNC1)NC(=O)C1(F)CCN(S(=O)(=O)c2ccc(Br)cc2-c2ccccc2Cl)CC1 [Compound 76]: 32
C[C@H](/C=C\S(C)(=O)=O)NC(=O)C1(F)CCN(C(=O)[C@H]2CN(CC(F)(F)F)C[C@H]2c2ccccc2Cl)CC1 [Compound 163]: 500
C[C@@H](/C=C\S(C)(=O)=O)NC(=O)C1(F)CCN(S(=O)(=O)c2ccc(Cl)cc2-c2cccc(OC3CC3)c2)CC1 [Compound 15]: 410
C[C@H](/C=C\S(C)(=O)=O)NC(=O)C1(F)CCN(S(=O)(=O)c2cc3sccc3cc2-c2ccccc2Cl)CC1 [Compound 157]: 200
C[C@H](/C=C\S(C)(=O)=O)NC(=O)[C@@]1(F)CCCN(S(=O)(=O)c2ccc(C(F)(F)F)cc2-c2ccccc2Cl)CC1 [Compound 310]: 85
COCc1ccc(S(=O)(=O)N2CC[C@@](F)(C(=O)N[C@H](C)/C=C/C(=O)N3CC(F)(F)C3)C[C@H]2C)c(-c2ccccc2Cl)c1 [Compound 156]: 520
COc1cccc(-c2cc(N(C)C)ccc2S(=O)(=O)N2CCC(F)(C(=O)N[C@@H](C)/C=C\S(C)(=O)=O)CC2)c1 (racemic) [Compound 86]: 60

Q: Look up IC50 for this molecule: C[C@@H](/C=C\S(C)(=O)=O)NC(=O)C1(F)CCN(S(=O)(=O)c2ccc(Cl)cc2-c2cccc(C#N)c2)CC1 [Compound 8]
Result: 690

Q: Subsequent entry: COc1cc(-c2ccccc2Cl)c(S(=O)(=O)N2CCC(F)(C(=O)N[C@H](C)/C=C\S(C)(=O)=O)CC2)cn1 [Compound 186]
Result: 493

Q: Subsequent entry: Cc1ccccc1-c1cc(C(C)C)ccc1S(=O)(=O)N1CCC(F)(C(=O)N[C@H](C)/C=C\S(C)(=O)=O)CC1 [Compound 115]
Result: 520

Q: Subsequent entry: C[C@@H](/C=C\S(C)(=O)=O)NC(=O)C1(F)CCN(S(=O)(=O)c2ccc(Cl)cc2-c2cccc(Cl)c2)CC1 [Compound 3]
Result: 90

Q: Subsequent entry: C[C@@H](/C=C\S(C)(=O)=O)NC(=O)C1(F)CCN(S(=O)(=O)c2ccc(Cl)cc2-c2cccc(OCc3ccccn3)c2)CC1 [Compound 269]
Result: 90

Q: Subsequent entry: C[C@H](/C=C\S(C)(=O)=O)NC(=O)[C@@]1(F)CCCN(C(=O)[C@H]2CN(CC(F)(F)F)C[C@H]2c2ccccc2Cl)CC1 [Compound 165]
Result: 164

Q: Subsequent entry: Cc1ccccc1[C@@H]1CN(CC(F)(F)F)C[C@@H]1C(=O)N1CCC[C@](F)(C(=O)N[C@H](C)/C=C\S(C)(=O)=O)CC1 (single isomer, unassigned) [Compound 224]
Result: 520

---

System Under Test: PIK3CA (Homo sapiens)
Construct: endogenous in cells
Procedure Text: In vitro ELISA target engagement assay for PIK3CA in Jurkat cellular lysate (competition with PIK3CA Biotin Probe)
Protocol Conditions: 1 hour at rt, then 500 nM PIK3CA Biotin Probe, read-out: Elisa Target Engagement Assay (TE50)
Lab note - cut at 200 nM for IC50: yes (1) if strictly below, no (0) if not.

# count of solved cases: 2
C[C@H]1C[C@](F)(C(=O)N[C@@H]2C=CS(=O)(=O)C2)CCN1C(=O)[C@@H]1CN(CC(C)(F)F)C[C@@H]1c1cccc(F)c1Cl (single isomer, unassigned): no (0)
COc1ccc(S(=O)(=O)N2CCC(F)(C(=O)N[C@H](C)C3=CS(=O)(=O)C3)CC2)c(-c2ccccc2Cl)c1: no (0)

Q: Regarding C[C@@H](NC(=O)C1(F)CCN(S(=O)(=O)c2ccc(Br)cc2-c2ccccc2Cl)CC1)C1=CS(=O)(=O)C1 (single isomer, unassigned) , kindly confirm whether its IC50 is beneath 200 nM.
Result: yes (1)

Q: Subsequent entry: C[C@@H](/C=C\S(C)(=O)=O)NC(=O)C1(F)CCN(S(=O)(=O)c2ccc(Cl)cc2-c2cccc(CCO)c2)CC1
Result: no (0)

---

Consider the following molecules and their measured pIC50 readings.
System Under Test: PIK3CA (Homo sapiens, UniProt P42336)
Construct: endogenous in cells
Procedure Text: In vitro ELISA target engagement assay for PIK3CA in Jurkat cellular lysate (competition with PIK3CA Biotin Probe)
Protocol Conditions: 1 hour at rt, then 500 nM PIK3CA Biotin Probe, read-out: Elisa Target Engagement Assay (TE50)
By convention, pIC50 is the negative base-10 log of a molar concentration.

Example molecules with recorded pIC50:
CCOc1cccc(-c2cc(Cl)ccc2S(=O)(=O)N2CCC(F)(C(=O)N[C@@H](C)/C=C\S(C)(=O)=O)CC2)c1: 6.49
CC[C@@H](/C=C\S(C)(=O)=O)NC(=O)C1(F)CCN(S(=O)(=O)c2ccc(Br)cc2-c2ccccc2Cl)CC1: 6.70
COc1cc(-c2ccccc2)c(S(=O)(=O)N2CCC(F)(C(=O)N[C@@H](C)/C=C\S(C)(=O)=O)CC2)cn1: 6.55
CC(C)c1ccc(S(=O)(=O)N2CCC(F)(C(=O)N[C@H](C)/C=C\S(C)(=O)=O)CC2)c(-c2ccccc2Cl)c1: 6.21
C[C@H](/C=C\S(C)(=O)=O)NC(=O)C1(F)CCN(S(=O)(=O)c2ccc(Br)cc2-c2cccc(F)c2Cl)CC1: 6.85

Now take the following molecule into account.
Q: Look up pIC50 for this molecule: COc1ccc(S(=O)(=O)N2CC[C@@](F)(C(=O)N[C@H](C)/C=C/C(=O)N3CC(F)(F)C3)C[C@H]2C)c(-c2ccccc2Cl)c1
Result: 6.65

---

Tested on: pAKT(S473) in H358 cell line
Procedure Text: In vitro Phospho-AKT(S473) HTRF analysis in H358 cells
Assay type: cell-based
Protocol Conditions: Homo sapiens, NCI-H358, 0.5 h; H358 cells, 30 minutes at 37° C.
Procedure: Example 5. In Vitro Phosgho-AKT(S473) Analysis Functional activity of the compounds to inhibit pAKT were assessed in FaDu or H358 cell lines as indicated below. […] Cells were detached from the tissue culture flask with TrypLE. […] The cells were then processed and pAKT(S473) levels were assessed following the specifications of the Cisbio HTRF kit.
Consider the following molecules and their measured pIC50 readings.
By convention, pIC50 is the negative base-10 log of a molar concentration.

Example molecules with recorded pIC50:
C[C@H](/C=C\S(C)(=O)=O)NC(=O)C1(F)CCN(C(=O)[C@H]2CCC(C)(C)C[C@@H]2c2ccccc2Cl)CC1 (racemic): 7.17
C[C@H](/C=C\S(C)(=O)=O)NC(=O)[C@@]1(F)CCCN(C(=O)[C@H]2CN(CC(F)(F)F)C[C@H]2c2c(F)cccc2Cl)CC1: 7.08
C[C@H](/C=C\S(C)(=O)=O)NC(=O)[C@@]1(F)CCCN(C(=O)[C@@H]2CCN(CC(F)(F)F)C[C@H]2c2ccccc2Cl)CC1 (single isomer, unassigned): 6.58
C[C@H](/C=C\S(C)(=O)=O)NC(=O)[C@@]1(F)CCCCN(C(=O)[C@H]2CN(CC(F)(F)F)C[C@H]2c2ccccc2Cl)CC1 (single isomer, unassigned): 6.16
C[C@H]1C[C@](F)(C(=O)N[C@@H]2C=CS(=O)(=O)C2)CCN1C(=O)[C@@H]1CN(CC(C)(F)F)C[C@@H]1c1cccc(F)c1Cl (single isomer, unassigned): 6.33

Q: Look up pIC50 for this molecule: C[C@H]1C[C@](F)(C(=O)N[C@@H]2C=CS(=O)(=O)C2)CCN1C(=O)[C@H]1CN(CC(C)(F)F)C[C@H]1c1ccccc1Cl (single isomer, unassigned)
Result: 6.91

Q: Subsequent entry: C[C@H]1C[C@](F)(C(=O)N[C@@H]2C=CS(=O)(=O)C2)CCN1C(=O)[C@H]1CN(CC(F)(F)F)C[C@H]1c1cccc(F)c1Cl (single isomer, unassigned)
Result: 6.82

Q: Subsequent entry: C[C@H](/C=C\S(C)(=O)=O)NC(=O)C1(F)CCN(C(=O)[C@H]2CN(CC(F)(F)F)C[C@H]2c2ccccc2Cl)C1 (some centres unmarked)
Result: 6.21

Q: Subsequent entry: C[C@H](/C=C\S(C)(=O)=O)NC(=O)[C@@]1(F)CCCN(C(=O)[C@H]2CN(CCC(F)(F)F)C[C@H]2c2ccccc2Cl)CC1
Result: 6.48

Q: Subsequent entry: C[C@H](/C=C\S(C)(=O)=O)NC(=O)[C@@]1(F)CCCN(C(=O)[C@H]2CN(Cc3ccccc3)C[C@H]2c2ccccc2Cl)CC1 (single isomer, unassigned)
Result: 6.40

Q: Subsequent entry: Cc1ccccc1[C@@H]1CN(CC(F)(F)F)C[C@@H]1C(=O)N1CCC[C@](F)(C(=O)N[C@H](C)/C=C\S(C)(=O)=O)CC1 (single isomer, unassigned)
Result: 6.49
